Molecular target: Tumor susceptibility gene 101 protein (Homo sapiens) (UniProt Q99816)
Sequence (Q99816 whole entry, looked up): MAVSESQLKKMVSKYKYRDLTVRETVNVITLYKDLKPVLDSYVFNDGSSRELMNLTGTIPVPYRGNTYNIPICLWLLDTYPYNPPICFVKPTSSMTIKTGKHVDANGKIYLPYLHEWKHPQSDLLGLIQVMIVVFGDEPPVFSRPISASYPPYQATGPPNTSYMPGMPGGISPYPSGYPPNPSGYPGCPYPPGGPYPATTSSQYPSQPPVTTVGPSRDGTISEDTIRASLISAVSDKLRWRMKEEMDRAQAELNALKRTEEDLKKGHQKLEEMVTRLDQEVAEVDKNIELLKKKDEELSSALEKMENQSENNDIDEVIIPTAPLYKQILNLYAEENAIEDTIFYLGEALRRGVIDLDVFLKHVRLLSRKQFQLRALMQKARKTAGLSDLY
Assay: qHTS Assay for Iinhibitors of HIV-1 Budding by Blocking the Interaction of PTAP/TSG101: Hit Validation (AID 651600); note: nearly all actives have a fitted effect of over 70% in size
Settings: PTAP peptide/TSG101 UEV interaction, biochemical assay; series mostly up to 57.5 µM
Inconclusive results are not listed. Activity calls are given as the source filed them. Calls come from the whole dose curve; as a rule, active = well fitted inhibition curve with a large enough effect; inconclusive = small, poorly fitted or top-dose-only effect; inactive = no such curve, though single readings can be large or run the other way.
Return exactly one item of t for active, f for inactive

COMPOUND	TGT	ANSWER_LABEL
CCN1CCN(Cc2ccc(NC(=O)Nc3ccccc3OC)cc2)CC1	Tumor susceptibility gene 101 protein (Homo sapiens) (UniProt Q99816)	f
ClCc1nc2ccccc2n1Cc1ccccc1	Tumor susceptibility gene 101 protein (Homo sapiens) (UniProt Q99816)	f
Nc1c(C(=O)O)sc2nc(-c3ccccc3)cc(-c3ccc(Cl)cc3)c12	Tumor susceptibility gene 101 protein (Homo sapiens) (UniProt Q99816)	f

Record request — test call for CCCCCCn1c(=O)[nH]c2nc3cc(N)ccc3nc2c1=O
t

Record request — test call for CCCCOC(=O)c1ccc(NC(=O)/C(C#N)=C/c2ccc(-c3ccccc3)o2)cc1
f
